system: heart rate response to isoproterenol; experiment: Duration of β-blockade in vivo in anesthetized dogs, 3-hour infusion; design: species or system dog; settings: Canis lupus familiaris, iv, 3-hour infusion, bolus isoproterenol 0.4 μg/kg, read-out: Potency (mg/kg/180 min)
measuredAttribute: log10 of ED50 (log10 of the value in mg/kg)
Give log10 of ED50, with ED50 taken in mg/kg.

Guide cases for log10 of ED50, answers given:
molecule	log10 of ED50
CCOC(=O)CCNCC(O)COc1ccccc1C(=O)OC (stereo not shown) [VIII, Hemihydrate]	1.44
Cc1ccccc1OCC(O)CNCCC(=O)Oc1ccccc1 (stereo not shown)	1.73
CCOC(=O)CCNCC(O)COc1cccc(Cl)c1 (stereo not shown)	0.93
CCOC(=O)CCNCC(O)COc1ccccc1C (stereo not shown)	0.83
COc1ccc(CCOC(=O)CCNCC(O)COc2ccccc2C)cc1OC (stereo not shown)	2.23

Look at each molecule and report its log10 of ED50.
1. CCOC(=O)CCNCC(O)COc1ccccc1Cl (stereo not shown)
2. COC(=O)CCNCC(O)COc1ccccc1C (stereo not shown)

1. 1.04
2. 0.64
